test system: L-1210 leukemia cells (sensitive); assay: MTT growth inhibition, sensitive L-1210 leukemia cells; assay type: cell-based, mouse; conditions: Mus musculus, L1210, 192 h; Sensitive L-1210; drug continuously present 8 days; read-out: IC50
measurement-kind: IC50 (µg/mL)

compound | endpoint-unit | value-qualifier | readout-number
N#CC1CN1C(=O)Nc1ccc(Cl)cc1Cl (stereo not drawn) | µg/mL | = | 52.3
N#CC1CN1C(=O)Nc1ccc(S(N)(=O)=O)cc1 (stereo not drawn) | µg/mL | > | 10
N#CC1CN1C(=O)Nc1ccccc1 (stereo not drawn) [AMP 404, 2-Cyanoaziridine-1-(N-phenyl)carboxamide] | µg/mL | = | 0.2
CCNC(=O)N1CC1C#N (stereo not drawn) [AMP 406, 2-Cyanoaziridine-1-(N-ethyl)carboxamide] | µg/mL | = | 2
N#CC1CN1C(=O)NC1CCCCC1 (stereo not drawn) | µg/mL | = | 1.4
CCOC(=O)CNC(=O)N1CC1C#N (stereo not drawn) | µg/mL | = | 2.5
CCOC(=O)c1ccc(NC(=O)N2CC2C#N)cc1 (stereo not drawn) | µg/mL | = | 2.5
N#CC1CN1C(=O)Nc1ccc(F)cc1 (stereo not drawn) | µg/mL | = | 1.5
CC(C)(C)NC(=O)N1CC1C#N (stereo not drawn) | µg/mL | = | 22
N#CC1CN1C(=O)Nc1cccnc1 (stereo not drawn) | µg/mL | = | 2.3
CC(=O)c1cccc(NC(=O)N2CC2C#N)c1 (stereo not drawn) | µg/mL | = | 2.2
CCCCNC(=O)N1CC1C#N (stereo not drawn) [AMP 414, 2-Cyanoaziridine-1-(N-butyl)carboxamide] | µg/mL | = | 2
N#CC1CN1C(=O)Nc1ccc(C(F)(F)F)cc1 (stereo not drawn) | µg/mL | = | 2
N#CC1CN1C(=O)Nc1cccc2ccccc12 (stereo not drawn) | µg/mL | = | 1.7
N#CC1CN1C(=O)NCc1ccccc1 (stereo not drawn) [AMP 412, 2-Cyanoaziridine-1-(N-benzyl)carboxamide] | µg/mL | = | 0.8
CNC(=O)N1CC1C#N (stereo not drawn) [AMP 403, 2-Cyanoaziridine-1-(N-methyl)carboxamide] | µg/mL | = | 1.1
N#CC1CN1C(=O)Nc1ccc([N+](=O)[O-])cc1 (stereo not drawn) | µg/mL | = | 0.6
N#CC1CN1C(=O)Nc1ccc(Cl)c(Cl)c1 (stereo not drawn) | µg/mL | = | 0.7

###

tested on: 8226/I-R myeloma cells; experiment: MTT growth inhibition, imexon-resistant 8226 myeloma cells; type: cell-based, human; conditions: Homo sapiens; 8226/I-R; MTT; read-out: IC50
pIC50: −log10 of the molar value.

molecule | target-desc | pIC50
CO[C@@]12[C@H](COC(N)=O)C3=C(C(=O)C(C)=C(N)C3=O)N1C[C@@H]1N[C@@H]12 [Mitomycin C, reference compound] | 8226/I-R myeloma cells | 7.00
COc1cccc2c1C(=O)c1c(O)c3c(c(O)c1C2=O)C[C@@](O)(C(=O)CO)C[C@@H]3O[C@H]1C[C@H](N)[C@H](O)[C@H](C)O1 | 8226/I-R myeloma cells | 9.49
CC[C@]1(O)C[C@H]2CN(CCc3c([nH]c4ccccc34)[C@@](C(=O)OC)(c3cc4c(cc3OC)N(C=O)[C@H]3[C@@](O)(C(=O)OC)[C@H](OC(C)=O)[C@]5(CC)C=CCN6CC[C@]43[C@@H]65)C2)C1 [Vincristine, reference compound] | 8226/I-R myeloma cells | 8.62
N=C1NC(=O)N2CC12 (stereo not shown) | 8226/I-R myeloma cells | 3.92

Source: patent US6297230A
